- experimental system: melanocortin-4 receptor (human, UniProt P32245 1-332)
- Sequence (P32245 whole entry): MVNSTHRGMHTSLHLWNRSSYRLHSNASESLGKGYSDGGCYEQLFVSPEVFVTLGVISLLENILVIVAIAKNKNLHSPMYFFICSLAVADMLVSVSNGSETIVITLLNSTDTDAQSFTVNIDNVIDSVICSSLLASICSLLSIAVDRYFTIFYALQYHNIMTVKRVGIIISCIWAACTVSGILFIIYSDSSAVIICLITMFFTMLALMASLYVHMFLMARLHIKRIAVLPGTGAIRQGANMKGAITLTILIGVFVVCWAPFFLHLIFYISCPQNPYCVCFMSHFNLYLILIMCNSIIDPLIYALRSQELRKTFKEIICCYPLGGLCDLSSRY
- test protocol: cell-based or functional assay
Bridge positions count the residues as written; N and C are the ends. Square brackets hold non-standard residues; d marks the D form. Pen = CC(C)(S)[C@H](N)C(=O)O; hCys = N[C@@H](CCS)C(=O)O
measurement name: cAMP Assay (EC-50) (nM)
Response body: numeric value in nM, unit text excluded.

Ac-RC[dL]H[dF]RWC-NH2 (disulfide 2-8) [Compound 1: Ac-Arg-cyclo[Cys-D-Leu-His-D-Phe-Arg-Trp-Cys]-NH2]; 0.7
Ac-R[hCys][dA][dF]RW[Pen]-NH2 (disulfide 2-7; SMILES CC(=O)N[C@@H](CCCNC(=N)N)C(=O)N[C@H]1CCSSC(C)(C)[C@@H](C(N)=O)NC(=O)[C@H](Cc2c[nH]c3ccccc23)NC(=O)[C@H](CCCNC(=N)N)NC(=O)[C@@H](Cc2ccccc2)NC(=O)[C@@H](C)NC1=O) [Compound 17: Ac-Arg-cyclo[hCys-D-Ala-D-Phe-Arg-Trp-Pen]-NH2]; 13.7
Ac-RC[dI]H[dF]RWC-NH2 (disulfide 2-8) [Compound 2: Ac-Arg-cyclo[Cys-D-Ile-His-D-Phe-Arg-Trp-Cys]-NH2]; 1
Ac-RC[dV]H[dF]RWC-NH2 (disulfide 2-8) [Compound 4: Ac-Arg-cyclo[Cys-D-Val-His-D-Phe-Arg-Trp-Cys]-NH2]; 1.34
Ac-RC[dA]P[dF]RWC-NH2 (disulfide 2-8; SMILES CC(=O)N[C@@H](CCCNC(=N)N)C(=O)N[C@H]1CSSC[C@@H](C(N)=O)NC(=O)[C@H](Cc2c[nH]c3ccccc23)NC(=O)[C@H](CCCNC(=N)N)NC(=O)[C@@H](Cc2ccccc2)NC(=O)[C@@H]2CCCN2C(=O)[C@@H](C)NC1=O) [Compound 13: Ac-Arg-cyclo[Cys-D-Ala-Pro-D-Phe-Arg-Trp-Cys]-NH2]; 56
Ac-RC[dA]R[dF]RWC-NH2 (disulfide 2-8; SMILES CC(=O)N[C@@H](CCCNC(=N)N)C(=O)N[C@H]1CSSC[C@@H](C(N)=O)NC(=O)[C@H](Cc2c[nH]c3ccccc23)NC(=O)[C@H](CCCNC(=N)N)NC(=O)[C@@H](Cc2ccccc2)NC(=O)[C@H](CCCNC(=N)N)NC(=O)[C@@H](C)NC1=O) [Compound 10: Ac-Arg-cyclo[Cys-D-Ala-Arg-D-Phe-Arg-Trp-Cys]-NH2]; 2.7

Moving on to the next binder.
Exam item: Can you share its cAMP Assay (EC-50)? I mean this binder: Ac-RC[dA]Y[dF]RWC-NH2 (disulfide 2-8; SMILES CC(=O)N[C@@H](CCCNC(=N)N)C(=O)N[C@H]1CSSC[C@@H](C(N)=O)NC(=O)[C@H](Cc2c[nH]c3ccccc23)NC(=O)[C@H](CCCNC(=N)N)NC(=O)[C@@H](Cc2ccccc2)NC(=O)[C@H](Cc2ccc(O)cc2)NC(=O)[C@@H](C)NC1=O) [Compound 11: Ac-Arg-cyclo[Cys-D-Ala-Tyr-D-Phe-Arg-Trp-Cys]-NH2]
Marked response: 45.1
